Tested on: RARb homodimer (NR concentration 270 nM)
Test: PBM binding z-score (relative to random genomic background probes); higher = stronger binding; sequences stand for … in GC…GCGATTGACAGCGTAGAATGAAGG
reportedProperty: PBM binding z-score
Please state the value as a number alone, without comment.

[[record]]
primarysequence = "CCTTACGGGTCACGAGGTTATAGAACGACGAGCG"
valuereported = 4.13

[[record]]
primarysequence = "CCAGACAGCTGAGAAGGTAACTCAGCCTCGATTA"
valuereported = -0.378

[[record]]
primarysequence = "ACTAGTAGGCCAAGTTTGGGTCACTCAAACAAAG"
valuereported = 2.48

[[record]]
primarysequence = "CGAACTAGATCAAGGACAGTGAATCTCCGCACGC"
valuereported = 0.0367

[[record]]
primarysequence = "CCTGCTAGGCCAATGGTCAGCTAAAGCAGCTCGC"
valuereported = 0.323


Exam item: Kindly state the measured PBM binding z-score obtained for `CGTCAAAGTTCAACTAAGGTACCGTAAAGCACGC` with RARb homodimer (NR concentration 270 nM).
Marked response: 4.34

Exam item: Please give the result for `GCTGCTAGGTGAACTGATGGTCAGCTAAAGCTCG` too.
Marked response: 0.715

* * *

Tested on: PPARg:RXRa 90nM:30nM, anti-RXR (NR concentration 90 nM, RXRa partner concentration 30 nM)
Experiment: PBM binding z-score (relative to random genomic background probes); higher = stronger binding; sequences stand for … in GC…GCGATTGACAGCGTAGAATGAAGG
Category scheme (PBM binding z-score): small value = under 1, mid value = from 1 up to 3, large value = 3 and over

Exam item: Lab note: sort `ATACCAAGGTGATCGTTAGGTCGTTGATACTAAC` into the matching PBM binding z-score band.
Marked response: small value

Exam item: Please give the result for `ACTCAAAGTTCACTAGGTAACGTAAGATTCAGCT` too.
Marked response: large value

Exam item: Please give the result for `AGTCAAGGTTCACTAGGTAACGTAAGATTCAGCT` too.
Marked response: large value

Exam item: Please give the result for `CGAACTAGGTCATAACAGGACAGTGAAGGATGAT` too.
Marked response: large value

Exam item: Please give the result for `ATCGAGAGGTCGAAGGTGAGTATACCCACCCGAA` too.
Marked response: large value

Exam item: Please give the result for `GCGACTGGGGCATCAGCCGGTTACCATAACTTAA` too.
Marked response: small value

Exam item: Please give the result for `CAGACTGGGGCAGAAAGGTTACCATACCATCCGG` too.
Marked response: mid value

* * *

Tested on: FXR:RXRa (NR concentration 270 nM, RXRa partner concentration 90 nM)
Experiment: PBM binding z-score (relative to random genomic background probes); higher = stronger binding; sequences stand for … in GC…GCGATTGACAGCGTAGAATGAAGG
reportedProperty: PBM binding z-score
Please state the value as a number alone, without comment.

Record excerpt, results attached:
[[record]]
primarysequence = "GGAGCGAGGGCAAGTTGATAGCAGAGTTTGATGG"
valuereported = 0.394

[[record]]
primarysequence = "ATATGTATGTTATCGGGTCATTCAGTTTGCGCAT"
valuereported = 1.97

[[record]]
primarysequence = "TCGAGTAGGTTACGGGCATTCAGAATGGCGTCGA"
valuereported = 0.0323

[[record]]
primarysequence = "ATCTCTAGGTAAAGCTAGTTCAGTGAATGCAAAT"
valuereported = 0.153

[[record]]
primarysequence = "CCTAGCAGGCCAGGGTAACTCAAGCATTTCGCTT"
valuereported = -0.463


Exam item: Quick check: PBM binding z-score of `TAGCCTAGGTCATTCAGGGACCAGTATAGAAAGC` ?
Marked response: 4.75
